Reference source: patent US20210403498A1

# Procedure Text: In vivo pharmacokinetics in rats (FA in plasma, LC MS/MS)
# Condition Notes: male, Sprague Dawley; rat plasma, single oral dose 100 mg/kg FA
Property Label: Tmax

* COc1cc(/C=C/C(=O)O)ccc1O | ~5 min

---

# Procedure Text: In vivo pharmacokinetics in rats (FA in plasma, LC MS/MS)
# Condition Notes: male, Sprague Dawley; rat plasma, single oral dose 100 mg/kg FA
Property Label: half-life

* COc1cc(/C=C/C(=O)O)ccc1O [FA, ferulic acid] | ~30 min
